test: chemical genetic growth profiling, strain panel (AID 1159580);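 also: tested at 20 µM; growth read once vehicle control cultures reached saturation at 30 °C; 1 = growth at the plate median or of vehicle wells; lower values mean less growth of the strain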; conditions: S. cerevisiae deletion strains, growth OD, locus YMR129W
The campaign covered roughly 5,500 compounds. About 2,000 (36%) were called active. Inconclusive results (about 18%) are left out. Rule as the data show it: active = normalized growth mostly below about 0.91 (no sharp cut-off); inconclusive = no clear call, values can overlap the other calls; inactive = mostly above about 0.92. Some of the results follow.
Labels: class 1 (active), class 0 (inactive)

Nc1c2c(nc3ccccc13)CCCC2O (stereo not given) | class 0
CC1=NS(=O)(=O)c2cc(Cl)ccc2N1 | class 0
CC(=O)O[C@H]1CC[C@@]2(C)C(CC[C@]3(C)C2CC=C2C4CC(C)(C)CC[C@]4(C)CC[C@]23C)C1(C)C (stereo not given in full) | class 0
NNc1nncc2ccccc12 | class 0
OC(CCN1CCCC1)(c1ccccc1)C1CCCCC1 (stereo not given) | class 0
Cc1cn([C@H]2C[C@H](N=[N+]=[N-])[C@@H](CO)O2)c(=O)[nH]c1=O | class 0
NC(Cc1c[nH]c2ccccc12)C(=O)O (stereo not given) | class 0
C/C=C(/C)C(=O)OC1CCC2(C)C3CCC4C5(O)CC(O)C6(O)C(CN7CC(C)CCC7C6(C)O)C5(O)CC42OC13O (stereo not given) | class 0
COC(=O)C[C@H]1C(C)(C)C(=O)[C@@H]2CC3C4=CC(=O)O[C@@H](c5ccoc5)[C@]4(C)CCC3[C@@]1(C)C2=O (stereo not given in full) | class 0
Nc1c2ccccc2nc2ccccc12 (tested in a mixture with another compound) | class 1
